- Target Or System: cerebral H1 receptor (Mus musculus, UniProt P70174)
- Construct: the entire brain, except for cerebellum and medulla oblongatae, was rapidly excised; from tissue; host or cells: brain homogenate (without cerebellum and medulla oblongata) of orally dosed ICR male mice
- Sequence (P70174 whole entry): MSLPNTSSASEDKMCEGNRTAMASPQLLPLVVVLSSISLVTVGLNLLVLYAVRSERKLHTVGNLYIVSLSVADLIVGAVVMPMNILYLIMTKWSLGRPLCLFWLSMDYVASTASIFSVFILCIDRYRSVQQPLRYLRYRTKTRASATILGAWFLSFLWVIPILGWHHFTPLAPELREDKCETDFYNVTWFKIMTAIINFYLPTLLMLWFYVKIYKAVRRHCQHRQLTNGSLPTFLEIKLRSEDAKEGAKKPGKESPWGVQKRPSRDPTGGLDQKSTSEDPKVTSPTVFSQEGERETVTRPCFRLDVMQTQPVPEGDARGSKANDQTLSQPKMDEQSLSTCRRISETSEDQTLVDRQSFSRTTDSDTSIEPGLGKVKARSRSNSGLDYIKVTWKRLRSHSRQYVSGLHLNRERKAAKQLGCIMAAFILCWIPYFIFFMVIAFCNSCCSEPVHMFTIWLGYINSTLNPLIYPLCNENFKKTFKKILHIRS
- Assay Comment: Murine cerebral H1 receptor occupying content (ex vivo)
- Assay type: in vivo
- Recorded Conditions: ICR male mouse, oral administration, brain excised after 1 hour, 3H-pyrilamine binding in brain homogenate; larger = lower brain transfer; read-out: ID50 (the source's name)
Each entry below carries its recorded ED50.
Supply the numeric figure in mg/kg, leaving out any unit text.

Answered cases to consult:
>>> meas_value("COC(=O)CSc1ccc2c(c1)C(=C1CCN(C)CC1)c1sccc1CO2.Cl [Compound 171]")
29.6
>>> meas_value("CCN1CCC(=C2c3cc(CCCC(=O)O)ccc3OCc3ccsc32)CC1 [Compound 142]")
11.9
>>> meas_value("CN1CCC(=C2c3cc(SCC(=O)O)ccc3OCc3ccsc32)CC1 [Compound 172]")
28

Looking up CN1CCC(=C2c3ccccc3CCc3sc(C(=O)O)cc32)CC1.Cl [Compound 4] , I see its ED50 listed as 43.1

Looking up COC(=O)Cc1ccc2c(c1)C(=C1CCN(CCCC(C)=O)CC1)c1sccc1CO2.Cl [Compound 169] , I see its ED50 listed as 12.5
